target.system: Bcl-2 protein (Recombinant Human Bcl-2 Protein) (Homo sapiens)
Construct: purchased Novus NBP2-34889
procedure.details: Binding evaluation of mixture library compounds to Bcl-2 using AS-MS (affinity selection mass spectrometry)
condition.info: AS-MS on the mixture of 1200 library compounds; ASMS Ratio(%)=(A−C)/B×100; replicate n = 1
test.readout: ASMS ratio (%) n = 1

{"columns": ["smiles.record", "measured.result"],
 "data": [
  ["CCOc1cccc(-c2ccc(C(=O)N3CCN(c4ccc(C(=O)N(CC)CC)nn4)CC3)cc2F)c1", "−0.4"],
  ["CCOc1cncc(-c2cc(CN3CCN(c4ccc(C(=O)N(CC)CC)cc4)CC3)cc(OCC)c2)c1", "−1.4"],
  ["CCOc1cccc(-c2ccc(CN3CCN(c4ccc(C(=O)Nc5ccc(OC)cc5)cc4)CC3)cc2F)c1", 3.9],
  ["CCOc1cncc(-c2ccc(C(=O)N3CCN(c4ccc(C(=O)N(C)CC56CC7CC(CC(C7)C5)C6)nn4)CC3)c3ccccc23)c1", 0.6],
  ["CCOc1cncc(-c2cc(C(=O)N3CCN(c4ccc(C(=O)Nc5ccc(OC)cc5)cc4)CC3)cc(C(C)(C)C)c2)c1", 2.8]
]}

###

target.system: Bcl-2 protein (Recombinant Human Bcl-2 Protein) (Homo sapiens, UniProt P10415)
Construct: purchased Novus NBP2-34889
Sequence (P10415 whole entry): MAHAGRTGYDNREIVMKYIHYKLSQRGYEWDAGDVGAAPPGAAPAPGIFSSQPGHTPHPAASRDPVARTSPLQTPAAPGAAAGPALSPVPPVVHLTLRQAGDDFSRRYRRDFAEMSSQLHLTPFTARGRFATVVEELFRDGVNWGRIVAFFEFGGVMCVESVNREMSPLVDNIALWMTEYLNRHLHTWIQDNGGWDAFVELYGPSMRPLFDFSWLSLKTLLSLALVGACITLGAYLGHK
procedure.details: Binding evaluation of mixture library compounds to Bcl-2 using AS-MS (affinity selection mass spectrometry)
condition.info: AS-MS on the mixture of 1200 library compounds; ASMS Ratio(%)=(A−C)/B×100; replicate n = 1
The reader will find reported ASMS ratio (%) n = 1 values listed item by item below.
test.readout: ASMS ratio (%) n = 1

{"columns": ["smiles.record", "target.system", "test.readout", "measured.result"],
 "data": [
  ["CCOc1cncc(C#Cc2cncc(C(=O)N3CCN(c4ccc(C(=O)N(C)CC56CC7CC(CC(C7)C5)C6)nn4)CC3)c2)c1", "Bcl-2 protein (Recombinant Human Bcl-2 Protein) (Homo sapiens, UniProt P10415)", "ASMS ratio (%) n = 1", 0.0],
  ["CCOc1cccc(-c2ccc(C(=O)N3CCN(c4ccc(C(=O)Nc5ccc(OC)cc5)nn4)CC3)cc2F)c1", "Bcl-2 protein (Recombinant Human Bcl-2 Protein) (Homo sapiens, UniProt P10415)", "ASMS ratio (%) n = 1", 3.6],
  ["CCOc1cccc(-c2ccccc2CN2CCN(c3ccc(C(=O)Nc4ccc(OC)cc4)nn3)CC2)c1", "Bcl-2 protein (Recombinant Human Bcl-2 Protein) (Homo sapiens, UniProt P10415)", "ASMS ratio (%) n = 1", 2.9],
  ["CCOc1cncc(-c2csc(C(=O)N3CCN(c4ccc(C(=O)Nc5ccc(OC)cc5)cc4)CC3)c2)c1", "Bcl-2 protein (Recombinant Human Bcl-2 Protein) (Homo sapiens, UniProt P10415)", "ASMS ratio (%) n = 1", 3.6],
  ["CCOc1cncc(C#Cc2ccccc2C(=O)N2CCN(c3ccc(C(=O)N(CC)CC)nn3)CC2)c1", "Bcl-2 protein (Recombinant Human Bcl-2 Protein) (Homo sapiens, UniProt P10415)", "ASMS ratio (%) n = 1", 0.0],
  ["CCOc1cccc(-c2ccccc2CN2CCN(c3ccc(C(=O)N(CC)CC)cc3)CC2)c1", "Bcl-2 protein (Recombinant Human Bcl-2 Protein) (Homo sapiens, UniProt P10415)", "ASMS ratio (%) n = 1", 1.1],
  ["CCOc1cncc(-c2ccccc2CCC(=O)N2CCN(c3ccc(C(=O)N(CC)CC)nn3)CC2)c1", "Bcl-2 protein (Recombinant Human Bcl-2 Protein) (Homo sapiens, UniProt P10415)", "ASMS ratio (%) n = 1", "−1.1"],
  ["CCOc1cncc(-c2ccccc2CN2CCN(c3ccc(C(=O)N(C)CC45CC6CC(CC(C6)C4)C5)nn3)CC2)c1", "Bcl-2 protein (Recombinant Human Bcl-2 Protein) (Homo sapiens, UniProt P10415)", "ASMS ratio (%) n = 1", 11.6],
  ["CCOc1cccc(-c2csc(CN3CCN(c4ccc(C(=O)Nc5ccc(OC)cc5)cc4)CC3)c2)c1", "Bcl-2 protein (Recombinant Human Bcl-2 Protein) (Homo sapiens, UniProt P10415)", "ASMS ratio (%) n = 1", 0.0],
  ["CCOc1cncc(-c2cc(C(=O)N3CCN(c4ccc(C(=O)N(CC)CC)nn4)CC3)cc(C(C)(C)C)c2)c1", "Bcl-2 protein (Recombinant Human Bcl-2 Protein) (Homo sapiens, UniProt P10415)", "ASMS ratio (%) n = 1", 0.0],
  ["CCOc1cncc(C#Cc2ccccc2CN2CCN(c3ccc(C(=O)Nc4ccc(OC)cc4)cc3)CC2)c1", "Bcl-2 protein (Recombinant Human Bcl-2 Protein) (Homo sapiens, UniProt P10415)", "ASMS ratio (%) n = 1", 8.8],
  ["CCOc1cncc(-c2ccccc2CCC(=O)N2CCN(c3ccc(C(=O)N(C)CC45CC6CC(CC(C6)C4)C5)nn3)CC2)c1", "Bcl-2 protein (Recombinant Human Bcl-2 Protein) (Homo sapiens, UniProt P10415)", "ASMS ratio (%) n = 1", 1.4]
]}
